# GI50 per entry
Test system: SK-MEL-2 melanoma
assay info: NCI tumour cell line growth inhibition, 48 h
readout label: GI50

1. S=c1ssc(Sc2ccccn2)c1Cl    34.6 µM
2. CCCCC[C@H]1C/C=C2/C(=O)C(Cl)=C[C@@H]2C/C=C\CCCC(=O)O[C@@H](CCCCC)C/C=C2/C(=O)C(Cl)=C[C@@H]2C/C=C\CCCC(=O)O1    0.362 µM
3. CCN1C(=O)N(CC)C2C1NN=c1s/c(=C3\C(=O)N(C)c4ccccc43)c(=O)n12 (stereo not drawn)    3.06 µM
4. CC[CH2][Pb]([CH2]CC)([CH2]CC)[NH]S(=O)(=O)c1ccc(C)cc1    0.0176 µM
5. CN(C)c1ccc(N=Nc2c([O-])ccc3ccccc23)cc1.[C-]#[O+].[C-]#[O+].[Ir]    23.8 µM
6. COc1cc2cc(Oc3ccc(NC(=O)c4ccc(Cl)c(C(F)(F)F)c4)cc3)c(C)nc2cc1OC    18.3 µM
7. O=C(NN1C(=O)CSC1c1ccc(Cl)cc1)c1[nH]c2ccc(F)cc2c1-c1ccccc1 (stereo not drawn)    9.61 µM
8. CCCCCCCCCCCCC(=O)[O-].CCCCCCCCCCCCC(=O)[O-].CCCCCCCCCCCCC(=O)[O-].CCCCCCCCCCCCC(=O)[O-].[Mo+2].[Mo+2]    12.2 µM

----------
Tested on: MDA-MB-231 breast
assay info: NCI tumour cell line growth inhibition, 48 h
readout label: TGI

1. O=C(CC(C(=O)c1cccs1)c1ccsc1)c1ccsc1 (stereo not drawn)    > 100 µM
2. CCN1C(=O)C(=Cc2ccc(-c3ccccc3)cc2)C(=O)N(CC)C1=S    > 100 µM
3. CC(C)(Br)C(=O)/C=C/c1ccccc1    > 69.8 µM
4. O=C(NCCNCCO)N/N=C/c1ccc([N+](=O)[O-])cc1    > 100 µM
5. CCc1c2c(nc3cccc(N)c13)-c1cc3c(c(=O)n1C2)COC(=O)[C@]3(O)CC    > 100 µM
6. O=C(O)C/C(=C\c1ccccc1)C(=O)O    > 100 µM
7. COc1ccc(C2NC3=C(CCCC3)C3(C#N)C(=O)N=C(N)C23C#N)cc1 (stereo not drawn)    > 100 µM
8. CN(C)c1ccc(/C=C/c2cc[n+](C)c3ccccc23)cc1    20.3 µM
9. O=C1CC(CC(OCc2ccccc2)C(COCc2ccccc2)OCc2ccccc2)CC(=O)N1 (stereo not drawn)    > 100 µM
10. Cc1ccc(NC(=O)CC(=O)n2nc(C)c(N=Nc3ccc(S(=O)(=O)CCOS(=O)(=O)O)cc3)c2C)cc1    > 100 µM
11. O=[N+]([O-])/C(C(Cl)=C(Cl)Cl)=C1/OCCS1    40.2 µM
12. Nc1nnc(-c2ccco2)c(-c2ccco2)n1    > 100 µM
13. CC1OC(c2ccccc2)=CC(OCc2ccccc2)[C@H]1OCc1ccccc1 (stereo partly drawn)    > 10 µM
14. NC(N)=NC(N)=Nc1c(F)c(F)c(F)c(F)c1F    > 100 µM
15. N#Cc1c2c([nH]c(=O)c1C#N)CCCC2    > 100 µM
16. CC1=CC(=O)C(C(C)=Nc2ccccc2Cl)C(=O)O1 (stereo not drawn)    > 100 µM
17. O=C(Nc1ccc2c(c1)oc(=O)c1ccccc12)C(Cl)Cl    > 100 µM
18. COC(=O)c1cc(-c2c[nH]cc2C(=O)OCc2ccccc2)cn1S(=O)(=O)c1ccc(C)cc1    > 100 µM
19. CC1=CCS(=O)(=O)C1C(O)C1=C(C)CCCC1(C)C (stereo not drawn)    > 100 µM
20. Clc1ccc2nc(Oc3ccccc3)cnc2c1    > 100 µM
21. CSCC[C@H]1C(=O)N=C(N)N1C(=O)OCc1ccccc1    > 100 µM
22. CCOC(=O)N1CCN(S(=O)(=O)c2oc(-c3ccc(Cl)cc3)nc2C#N)CC1    4.24 µM
23. Cn1cc(-c2ccc3c(c2)CCN3C(=O)Cc2cccc(C(F)(F)F)c2)c2c(N)ncnc21    21.9 µM

----------
Tested on: HOP-62 NSCLC
assay info: NCI tumour cell line growth inhibition, 48 h
# TGI per entry
readout label: TGI

1) C=CCc1ccc(O)c(-c2cc(C3Oc4c(-c5cc(CC=C)ccc5O)cc(O)cc4[C@@H]3CO)ccc2O)c1 (some centres not stated)    75 µM
2) Cc1c(C)c2ccc(OC/C=C3\CCC(=O)O3)cc2oc1=O    28.8 µM
3) O=[N+]([O-])c1ccc(CS(=O)Cc2ccccc2)cc1 (configuration not stated)    > 100 µM
4) OC(c1ccccc1)(c1ccccc1)c1cccnc1    > 100 µM
5) Cc1ccc(NC(=O)CC(=O)n2nc(C)c(N=Nc3ccc(S(=O)(=O)CCOS(=O)(=O)O)cc3)c2C)cc1    > 100 µM
6) COc1ccc(COCC(Cn2ccnc2)OCc2ccc(C(=O)O)cc2)cc1 (configuration not stated)    > 100 µM
7) Cc1ccc(-c2n[nH]c(=O)[nH]2)cc1    > 100 µM

----------
System: UACC-62 melanoma
assay info: NCI tumour cell line growth inhibition, 48 h
readout label: TGI

1) C=C[C@]1(C)C=C2C(=O)[C@@]3(O)OC[C@@]4(CCCC(C)(C)C43O)C2(O)C(O)C1 (stereo not given in full)    21.5 µM
2) N/N=C(\Cc1ccccc1)NN=C(N)N    > 100 µM
3) O=C(O)c1c[nH]cc1C(=O)O    > 100 µM
4) COc1cc2c(c(OC)c1OC)C(=O)[C@H]1OC(=O)N[C@@H]21    > 100 µM
5) CSc1c(C(=O)Nc2ccc(Cl)cc2)c(N)[nH]c(=O)c1C#N    > 100 µM
6) CC1=NN(C(=O)c2ccc(Cl)cc2)C(=O)/C1=C/c1cccc([N+](=O)[O-])c1    > 100 µM
7) Cc1c2cnccc2nc2[nH]c3ccncc3c12    41.5 µM
8) COc1cc(/C=C/C2=NN(c3cccc(S(=O)(=O)O)c3)C3(C2)C(Cl)C(=O)N3c2nc3ccccc3s2)ccc1O (stereo not given)    43.1 µM
9) CO[C@@H](c1ccccc1)[C@H](O)[C@](O)(c1ccccc1)P(=O)(OC)OC    > 100 µM
10) COc1ccc(C2NC3=C(CCCC3)C3(C#N)C(=O)N=C(N)C23C#N)cc1 (stereo not given)    > 100 µM

----------
# GI50 per entry
Test system: KM12 colon
assay info: NCI tumour cell line growth inhibition, 48 h
readout label: GI50

1) CC(C)OC(=O)c1ccc2[nH]c(O)c(C(=Nc3ccc(N(C)C(=O)CN4CCN(C)CC4)cc3)c3ccccc3)c2c1    0.0251 µM
2) CC1=CC(=O)C(C(C)=Nc2ccccc2Cl)C(=O)O1 (stereo unspecified)    > 100 µM
3) O=C(NN1C(=O)CSC1c1ccc(Cl)cc1)c1[nH]c2ccc(F)cc2c1-c1ccccc1 (stereo unspecified)    1.61 µM
4) Fc1ccc(Nc2nccc(-c3c(-c4ccc(C(F)(F)F)cc4)nn4ncccc34)n2)cc1F    > 25 µM
5) CCOC(=O)c1c(C)n(Cc2ccc(Cl)cc2Cl)c2c1cc1oc(=O)c(=O)n3c(Cc4ccccc4)nc2c13    1.63 µM
6) C=C[C@]1(C)C=C2C(=O)[C@@]3(O)OC[C@@]4(CCCC(C)(C)C43O)C2(O)C(O)C1 (stereo partly specified)    13.1 µM
7) CC(=O)C1=C([O-])C(C)OC1=O.CC(=O)C1=C([O-])C(C)OC1=O.[NH-]C1CCCC[C@H]1[NH-].[Pt+4] (stereo unspecified)    > 100 µM
8) COc1ccc(/C=C2\CCCC3=C2NC(C)=NC3c2ccc(OC)c(OC)c2)cc1OC (stereo unspecified)    61.2 µM
9) CCOC(=O)N1CCN(S(=O)(=O)c2oc(-c3ccc(Cl)cc3)nc2C#N)CC1    10.5 µM
10) COc1ccc(-c2ccc(/C=N/n3c(COc4ccc(Cl)cc4)n[nH]c3=S)o2)c([N+](=O)[O-])c1    8.12 µM
11) COc1ccccc1-c1c(C)nn2c(NCc3ccccn3)cc(C)nc12    > 46.6 µM

----------
System: SF-295 CNS
assay info: NCI tumour cell line growth inhibition, 48 h
readout label: TGI

1) NC(N)=NC(N)=Nc1c(F)c(F)c(F)c(F)c1F    > 100 µM
2) NCc1ccc(-n2c(-c3nonc3N)nc3cnccc32)cc1    > 25 µM
3) COc1ccc2c(c1)nc(N)c1c3cccnc3cn21    1.13 µM
4) COc1ccc(-c2c(C#N)c(S)n(C3OC(CO)C(O)C(O)C3O)c(=O)c2C#N)cc1 (stereo unspecified)    > 100 µM
5) N#Cc1c2c([nH]c(=O)c1C#N)CCCC2    > 100 µM
6) Nc1nc(OCc2ccccc2)nc2[nH]ncc12    31.1 µM

// provenance: PubChem BioAssay (NCI)
